Known pIC50 of a selection of molecules
TEST TARGET: Sodium channel protein type 4 subunit alpha (Homo sapiens, UniProt P35499)
Sequence (P35499 whole entry): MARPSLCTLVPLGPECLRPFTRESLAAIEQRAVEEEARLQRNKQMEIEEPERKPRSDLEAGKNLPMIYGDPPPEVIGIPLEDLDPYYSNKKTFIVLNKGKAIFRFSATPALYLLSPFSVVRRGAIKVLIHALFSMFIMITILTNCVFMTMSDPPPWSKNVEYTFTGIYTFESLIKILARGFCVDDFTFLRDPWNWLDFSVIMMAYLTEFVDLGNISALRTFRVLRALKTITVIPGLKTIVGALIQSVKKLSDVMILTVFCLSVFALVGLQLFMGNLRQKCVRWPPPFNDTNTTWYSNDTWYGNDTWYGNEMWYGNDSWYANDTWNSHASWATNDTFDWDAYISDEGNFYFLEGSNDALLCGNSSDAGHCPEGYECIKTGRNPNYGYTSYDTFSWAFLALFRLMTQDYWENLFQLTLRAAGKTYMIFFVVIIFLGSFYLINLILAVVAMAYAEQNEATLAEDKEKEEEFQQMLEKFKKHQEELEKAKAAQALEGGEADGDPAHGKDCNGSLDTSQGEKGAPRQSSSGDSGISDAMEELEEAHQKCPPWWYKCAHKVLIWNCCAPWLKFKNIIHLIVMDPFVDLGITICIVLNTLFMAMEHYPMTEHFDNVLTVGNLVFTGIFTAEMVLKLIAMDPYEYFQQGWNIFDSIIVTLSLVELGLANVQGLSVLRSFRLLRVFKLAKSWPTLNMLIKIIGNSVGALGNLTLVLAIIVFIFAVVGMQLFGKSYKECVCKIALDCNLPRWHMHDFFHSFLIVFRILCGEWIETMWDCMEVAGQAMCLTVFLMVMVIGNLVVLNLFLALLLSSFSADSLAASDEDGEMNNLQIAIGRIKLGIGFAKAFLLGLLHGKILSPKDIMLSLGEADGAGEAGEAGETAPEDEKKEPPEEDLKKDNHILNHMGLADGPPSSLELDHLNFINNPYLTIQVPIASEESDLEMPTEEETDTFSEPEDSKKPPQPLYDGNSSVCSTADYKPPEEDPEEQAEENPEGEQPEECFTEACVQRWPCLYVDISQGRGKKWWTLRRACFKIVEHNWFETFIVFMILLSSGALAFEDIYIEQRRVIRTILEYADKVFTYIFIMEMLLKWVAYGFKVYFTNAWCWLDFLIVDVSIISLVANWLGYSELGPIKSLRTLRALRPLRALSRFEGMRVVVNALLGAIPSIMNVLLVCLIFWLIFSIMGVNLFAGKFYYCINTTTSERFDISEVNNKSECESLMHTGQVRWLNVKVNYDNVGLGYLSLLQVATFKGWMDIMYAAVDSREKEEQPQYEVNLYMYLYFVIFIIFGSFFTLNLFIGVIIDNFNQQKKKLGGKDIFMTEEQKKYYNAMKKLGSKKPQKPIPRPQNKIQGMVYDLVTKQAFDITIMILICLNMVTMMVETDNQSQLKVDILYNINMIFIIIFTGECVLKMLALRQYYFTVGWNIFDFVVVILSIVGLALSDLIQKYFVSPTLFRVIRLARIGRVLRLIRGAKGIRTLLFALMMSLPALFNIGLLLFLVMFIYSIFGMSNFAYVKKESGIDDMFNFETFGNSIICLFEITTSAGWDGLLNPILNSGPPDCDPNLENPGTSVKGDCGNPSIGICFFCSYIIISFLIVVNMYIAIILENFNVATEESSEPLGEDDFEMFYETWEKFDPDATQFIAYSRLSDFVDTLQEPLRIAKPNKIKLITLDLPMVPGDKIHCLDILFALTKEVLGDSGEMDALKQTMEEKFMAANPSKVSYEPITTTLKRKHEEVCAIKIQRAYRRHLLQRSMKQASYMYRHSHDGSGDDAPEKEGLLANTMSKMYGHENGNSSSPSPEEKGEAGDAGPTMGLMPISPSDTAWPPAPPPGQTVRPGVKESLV
EXPERIMENTAL PROTOCOL: Modulation of human Nav1.4 by automated patch clamp electrophysiology assay
Formally, pIC50 is defined as -log10 of the concentration c, with c in mol/L.

1) Nc1nc2c(s1)C[C@@H](NC(=O)c1cc(Br)c(Br)[nH]1)CC2 = 4.82

Next:
Fill in pIC50 for record Nc1nc2c(s1)C[C@@H](NCc1ccc[nH]1)CC2
4.52

* * *

TEST TARGET: Sodium channel protein type 3 subunit alpha (Homo sapiens, UniProt Q9NY46)
Sequence (Q9NY46 whole entry): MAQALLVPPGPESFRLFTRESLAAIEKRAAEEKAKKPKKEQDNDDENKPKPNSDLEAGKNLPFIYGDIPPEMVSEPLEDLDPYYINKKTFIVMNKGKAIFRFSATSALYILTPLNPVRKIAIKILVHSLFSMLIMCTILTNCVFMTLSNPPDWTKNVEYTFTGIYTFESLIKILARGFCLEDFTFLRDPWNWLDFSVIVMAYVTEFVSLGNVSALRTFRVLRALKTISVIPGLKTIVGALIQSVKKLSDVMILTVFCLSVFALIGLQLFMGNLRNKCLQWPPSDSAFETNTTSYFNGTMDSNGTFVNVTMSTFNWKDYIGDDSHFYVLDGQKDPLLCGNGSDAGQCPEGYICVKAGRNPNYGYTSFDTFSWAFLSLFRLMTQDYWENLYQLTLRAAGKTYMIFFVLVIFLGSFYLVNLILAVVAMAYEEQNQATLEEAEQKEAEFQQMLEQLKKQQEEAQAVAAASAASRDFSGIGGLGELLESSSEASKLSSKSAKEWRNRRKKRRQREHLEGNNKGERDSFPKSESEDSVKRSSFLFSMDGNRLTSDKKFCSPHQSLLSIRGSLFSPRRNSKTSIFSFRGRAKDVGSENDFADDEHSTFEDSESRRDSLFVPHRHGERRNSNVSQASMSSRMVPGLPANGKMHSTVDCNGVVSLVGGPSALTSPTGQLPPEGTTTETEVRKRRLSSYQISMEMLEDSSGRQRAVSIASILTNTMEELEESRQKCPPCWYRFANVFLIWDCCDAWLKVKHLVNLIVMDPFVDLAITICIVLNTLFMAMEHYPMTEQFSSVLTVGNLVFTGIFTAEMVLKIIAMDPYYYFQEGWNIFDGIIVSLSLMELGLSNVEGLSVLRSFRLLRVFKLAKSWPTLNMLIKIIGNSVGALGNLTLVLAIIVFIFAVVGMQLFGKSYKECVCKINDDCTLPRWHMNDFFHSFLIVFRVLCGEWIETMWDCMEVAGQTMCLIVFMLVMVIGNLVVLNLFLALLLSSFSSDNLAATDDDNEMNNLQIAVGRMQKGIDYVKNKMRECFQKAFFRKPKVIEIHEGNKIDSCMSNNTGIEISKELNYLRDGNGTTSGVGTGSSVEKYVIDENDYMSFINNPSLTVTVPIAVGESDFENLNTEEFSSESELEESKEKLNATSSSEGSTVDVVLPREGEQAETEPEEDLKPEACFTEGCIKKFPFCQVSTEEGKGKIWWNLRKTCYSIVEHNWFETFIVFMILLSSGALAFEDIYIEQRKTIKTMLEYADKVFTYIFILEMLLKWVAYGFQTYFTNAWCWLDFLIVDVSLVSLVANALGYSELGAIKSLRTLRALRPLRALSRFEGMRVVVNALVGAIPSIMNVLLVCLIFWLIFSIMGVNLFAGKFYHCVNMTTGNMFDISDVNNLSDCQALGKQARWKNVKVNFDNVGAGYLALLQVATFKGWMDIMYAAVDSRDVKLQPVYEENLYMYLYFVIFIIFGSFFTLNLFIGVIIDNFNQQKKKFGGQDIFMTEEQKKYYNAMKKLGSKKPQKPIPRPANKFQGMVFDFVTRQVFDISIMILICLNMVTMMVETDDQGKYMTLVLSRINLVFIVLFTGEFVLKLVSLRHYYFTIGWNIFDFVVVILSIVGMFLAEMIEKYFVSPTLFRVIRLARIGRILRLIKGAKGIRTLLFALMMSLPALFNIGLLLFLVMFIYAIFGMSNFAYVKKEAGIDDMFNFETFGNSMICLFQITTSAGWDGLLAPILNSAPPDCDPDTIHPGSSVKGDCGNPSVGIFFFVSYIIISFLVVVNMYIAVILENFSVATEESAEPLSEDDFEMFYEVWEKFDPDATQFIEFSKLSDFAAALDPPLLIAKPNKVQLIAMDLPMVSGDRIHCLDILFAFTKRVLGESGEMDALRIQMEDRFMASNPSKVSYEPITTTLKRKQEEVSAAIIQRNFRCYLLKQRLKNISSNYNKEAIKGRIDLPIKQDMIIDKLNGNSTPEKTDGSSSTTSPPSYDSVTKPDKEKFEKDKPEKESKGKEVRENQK
EXPERIMENTAL PROTOCOL: Modulation of human Nav1.3 by automated patch clamp electrophysiology assay
OBSERVATION TYPE: IC50

Answered cases to consult:
1. Nc1nc2c(s1)CC(CNC(=O)c1cc(Br)c(Br)[nH]1)CC2 (stereo not drawn) = 18 µM
2. Cn1cccc1C(=O)N[C@H]1CCc2nc(N)sc2C1 = 24 µM

Next:
Fill in IC50 for record CC(C)(C)OC(=O)N1CCC[C@H]1C(=O)N[C@H]1CCc2nc(N)sc2C1
> 30 µM
